Would you kindly list EC50 for each of these compounds?
- Measured Target: Human TREM2 (Homo sapiens)
- Construct: expressed in transfected cells
- Sequence (Q9NZC2 19-230): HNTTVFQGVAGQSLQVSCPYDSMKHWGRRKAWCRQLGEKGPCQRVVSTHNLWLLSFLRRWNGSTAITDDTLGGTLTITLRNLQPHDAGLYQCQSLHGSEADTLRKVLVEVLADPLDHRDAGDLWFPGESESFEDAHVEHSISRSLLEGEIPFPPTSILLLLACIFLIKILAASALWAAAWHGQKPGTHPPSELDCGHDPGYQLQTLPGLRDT
- Sequence (O43914 22-113 partner): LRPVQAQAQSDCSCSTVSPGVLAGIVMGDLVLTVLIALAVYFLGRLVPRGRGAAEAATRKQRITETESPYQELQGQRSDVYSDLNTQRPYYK
- Test: Human TREM2 activity: cellular phosphorylation of Syk (AlphaLISA SureFire Ultra p-SYK) in HEK293/DAP12+TREM2 stable cell line
- Type: cell-based
- Applied Conditions: phospho-Syk AlphaLISA signal, HEK293/DAP12+TREM2 cells; concentration giving 50% of maximal response; read-out: EC50

Sure, the documented EC50 for Cc1nc2c(C3CCC(C)CC3)nc(N3CCOC(c4cnn(C)c4)C3)nc2c(=O)n1C (stereo not drawn) [Example 12b] is 100 to 1000 nM

Sure, the documented EC50 for Cc1cc([C@@H]2CN(c3nc(-c4ccc(Cl)cc4F)c4nc(C)n(C)c(=O)c4n3)CCO2)ccn1 (single isomer, unassigned) [Example 23A] is 10 to 100 nM

Sure, the documented EC50 for Cc1cc([C@@H]2CN(c3nc(-c4ccc(F)cc4F)c4nc(C)n(C)c(=O)c4n3)CC(C)(C)O2)ccn1 (single isomer, unassigned) [Example 170A] is 100 to 1000 nM

Sure, the documented EC50 for Cc1nc2c(-c3ccc(Cl)cc3F)nc([C@@H]3C[C@H](c4cnn(C)c4)OC(C)(C)C3)nc2c(=O)n1C (single isomer, unassigned) [Example 111B] is 100 to 1000 nM

Sure, the documented EC50 for Cc1nc2c(-c3cc(F)c(F)cc3F)nc(N3C[C@@H](c4cnn(C)c4)OC4(CC4)C3)cc2c(=O)n1C (single isomer, unassigned) [Example 146A] is 10 to 100 nM

Sure, the documented EC50 for Cc1nc2c(-c3ccc(C(F)F)nc3)nc(N3C[C@@H](C)O[C@@H](c4cnn(C5CC5)c4)C3)cc2c(=O)n1C (single isomer, unassigned) [Example 194B] is 100 to 1000 nM

Sure, the documented EC50 for Cc1cc([C@H]2CN(c3nc(-c4ccc(F)cc4F)c4nc(C(F)(F)F)n(C)c(=O)c4n3)CCO2)ccn1 (single isomer, unassigned) [Example 154B] is 10 to 100 nM

Sure, the documented EC50 for Cc1nc2c(-c3ccc(Cl)cc3F)nc(N3CCOC(c4ncon4)C3)nc2c(=O)n1C (stereo not drawn) is 100 to 1000 nM

Sure, the documented EC50 for Cc1nc2c(-c3ccc(C(F)(F)F)nc3)nc(N3CCO[C@H](c4cnn(C)c4)C3)cc2c(=O)n1C (single isomer, unassigned) [Example 127B] is > 1000 nM

Sure, the documented EC50 for Cc1nc2c(-c3ccc(Cl)cc3F)nc(N3C[C@H](c4cnn(C)c4)OC4(CCC4)C3)nc2c(=O)n1C (single isomer, unassigned) [Example 109B] is 100 to 1000 nM

Sure, the documented EC50 for Cc1cc([C@@H]2CN(c3cc4c(=O)n(C)c(C)nc4c(-c4ccc(C(F)(F)F)cc4F)n3)CCO2)ccn1 (single isomer, unassigned) [Example 137A] is 1 to 10 nM

Sure, the documented EC50 for Cc1nc2c(-c3ccc(Cl)cc3F)nc(N3C[C@@H](c4cnn(C)c4)OC4(CC4)C3)cc2c(=O)n1C (single isomer, unassigned) [Example 144A] is 1 to 10 nM

###

- Measured Target: Human TREM2 (Homo sapiens)
- Construct: expressed in transfected cells
- Test: Human TREM2 activity: cellular phosphorylation of Syk (AlphaLISA SureFire Ultra p-SYK) in HEK293/DAP12+TREM2 stable cell line
- Type: cell-based
- Applied Conditions: HEK293; maximal response relative to reference agonist example 1B (remaining examples); read-out: Emax
Measurement Label: Emax

Sure, the documented Emax for Cc1nc2c(-c3ccc(Cl)cc3F)nc(N3CC(c4cnn(C)c4)OC4(CCC4)C3)nc2c(=O)n1C (stereo not shown) [Example 90] is 75 to 110%

Sure, the documented Emax for Cc1cc([C@@H]2CN(c3nc(-c4ccc(F)cc4F)c4nc(C(F)(F)F)n(C)c(=O)c4c3F)CCO2)ccn1 (single isomer, unassigned) [Example 174A] is < 75%

Sure, the documented Emax for Cc1nc2c(-c3ccc(C(F)(F)F)cc3F)nc(N3C[C@@H](c4cnn(C5CC5)c4)O[C@@H](C)C3)nc2c(=O)n1C (single isomer, unassigned) [Example 195A] is < 75%

Sure, the documented Emax for Cc1nc2c(-c3ccc(Cl)cc3F)nc(N3CCOC(c4cnn(C5COC5)c4)C3)nc2c(=O)n1C (stereo not shown) [Example 40] is 75 to 110%

###

- Measured Target: Human TREM2 (Homo sapiens)
- Construct: expressed in transfected cells
- Test: Human TREM2 activity: cellular phosphorylation of Syk (AlphaLISA SureFire Ultra p-SYK) in HEK293/DAP12+TREM2 stable cell line
- Assay type: cell-based
- Applied Conditions: HEK293; maximal response relative to reference agonist example 1B (remaining examples); read-out: Emax
- From the text: Human TREM2, in vitro Measurement of Triggering Receptor Expressed on Myeloid Cells 2 activity using cellular phosphorylation of Spleen Tyrosine Kinase (“Syk”) Assay […] TREM2 signaling through DAP12 was monitored in the HEK293/DAP12+TREM2 stable cell line by measuring the phosphorylation levels of the Syk kinase using the commercially available AlphaLISA SureFire Ultra p-SYK (Tyr525/526) Assay Kit (PerkinElmer #ALSU-PSYK), based on the Perkin Elmer AlphaScreen/AlphaLISA technology. […]
Measurement Label: Emax

# Emax measured on Human TREM2 (Homo sapiens) for item Cc1cc([C@H]2CN(c3cc4c(=O)n(C)c(C)nc4c(-c4ccc(F)cc4F)n3)CCO2)ccn1 (single isomer, unassigned) [Example 136B] = < 75%

# Emax measured on Human TREM2 (Homo sapiens) for item Cc1nc2c(-c3ccc(Cl)cc3F)nc(N3C[C@H](c4cnn(C)c4)OC(C)(C)C3)cc2c(=O)n1C (single isomer, unassigned) [Example 112B] = < 75%

# Emax measured on Human TREM2 (Homo sapiens) for item CCN1CCN(c2nc(-c3ccc(Cl)cc3F)c3nc(C)n(C)c(=O)c3n2)CC1c1cnn(C)c1 (stereo not drawn) = 75 to 110%

# Emax measured on Human TREM2 (Homo sapiens) for item Cc1nc2c(-c3ccc(C(F)(F)F)nc3)nc(N3CCO[C@@H](c4cnn(C)c4)C3)cc2c(=O)n1C (single isomer, unassigned) [Example 127A] = < 75%

# Emax measured on Human TREM2 (Homo sapiens) for item Cn1c(C(F)(F)F)nc2c(-c3ccc(F)cc3F)nc([C@@H]3CCO[C@H](c4cnn(C5CC5)c4)C3)cc2c1=O (single isomer, unassigned) [Example 197A] = < 75%

# Emax measured on Human TREM2 (Homo sapiens) for item Cc1nc2c(-c3ccc(Cl)cc3F)nc([C@H]3C[C@@H](c4cnn(C)c4)OC(C)(C)C3)nc2c(=O)n1C (single isomer, unassigned) [Example 111A] = 75 to 110%

###

- Measured Target: Human TREM2 (Homo sapiens)
- Construct: expressed in transfected cells
- Test: Human TREM2 activity: cellular phosphorylation of Syk (AlphaLISA SureFire Ultra p-SYK) in HEK293/DAP12+TREM2 stable cell line
- Type: cell-based
- Applied Conditions: phospho-Syk AlphaLISA signal, HEK293/DAP12+TREM2 cells; concentration giving 50% of maximal response; read-out: EC50
Measurement Label: EC50

Sure, the documented EC50 for Cc1nc2c(-c3ccc(F)cc3F)nc(N3CC(C)OC(c4cnn(C5CC5)c4)C3)nc2c(=O)n1C (racemic) [Example 177C] is 100 to 1000 nM

Sure, the documented EC50 for CNC(=O)C1CN(c2nc(-c3ccc(Cl)cc3F)c3nc(C)n(C)c(=O)c3n2)CCO1 (stereo not shown) [Example 49] is > 1000 nM

Sure, the documented EC50 for Cc1nc2c(-c3ccc(Cl)cc3F)nc(N3CCC[C@H](Oc4cnn(C)c4)C3)nc2c(=O)n1C [Example 75] is 100 to 1000 nM

Sure, the documented EC50 for Cc1cc([C@H]2CN(c3cc4c(=O)n(C)c(C)nc4c(-c4ccc(Cl)cc4F)n3)CC3(CC3)O2)ccn1 (single isomer, unassigned) [Example 128B] is 100 to 1000 nM

Sure, the documented EC50 for Cc1nc2c(-c3ccc(C#N)cc3F)nc(N3C[C@@H](c4cnn(C5CC5)c4)O[C@@H](C)C3)cc2c(=O)n1C (single isomer, unassigned) [Example 200A] is < 1 nM

Sure, the documented EC50 for Cc1nc2c(-c3ccc(F)cc3F)nc(N3CCO[C@H](c4cnn(C)c4)C3)cc2c(=O)n1C (single isomer, unassigned) [Example 129B] is 10 to 100 nM

Sure, the documented EC50 for Cc1nc2c(-c3cc(F)c(F)cc3F)nc([C@@H]3CCO[C@H](c4cnn(C5CC5)c4)C3)cc2c(=O)n1C (single isomer, unassigned) [Example 139A] is 10 to 100 nM

Sure, the documented EC50 for Cc1cnccc1OC1CCN(c2nc(-c3ccc(Cl)cc3F)c3nc(C)n(C)c(=O)c3n2)CC1 [Example 84] is 100 to 1000 nM

Sure, the documented EC50 for Cc1nc2c(-c3ccc(Cl)cc3F)nc(N3CC(OCc4cnn(C)c4)C3)nc2c(=O)n1C [Example 18] is > 1000 nM

Sure, the documented EC50 for Cc1nc2c(-c3ccc(C(F)(F)F)cc3F)nc(N3C[C@@H](c4cnn(C)c4)OC4(CCC4)C3)cc2c(=O)n1C (single isomer, unassigned) [Example 143A] is 1 to 10 nM

Sure, the documented EC50 for Cc1nc2c(-c3ccc(C(F)(F)F)nc3)nc(N3C[C@@H](c4cnn(C)c4)OC(C)(C)C3)nc2c(=O)n1C (single isomer, unassigned) [Example 102A] is 10 to 100 nM

Sure, the documented EC50 for Cc1nc2c(-c3ccc(F)cc3F)nc([C@@H]3CCO[C@H](c4cnn(C5CC5)c4)C3)nc2c(=O)n1C (single isomer, unassigned) [Example 120A] is > 1000 nM

Sure, the documented EC50 for Cc1nc2c(-c3ccc(C(F)(F)F)cc3F)nc(N3CCO[C@@H](c4cnn(C)c4)C3)cc2c(=O)n1C (single isomer, unassigned) [Example 126A] is 1 to 10 nM

Measured values drawn from patent US20260200926A1 for this set.
